Recorded measurements of MEAN CORPUSCULAR VOLUME, one per entry
- Species on record: Rattus norvegicus
- ASSAY TEXT: DrugMatrix - Regimen: Daily Repeat
- Type: toxicity, organism-based, Sprague-Dawley
- Parameters: regimen Daily Repeat, gender Male, age 6-8 weeks
- CONDITIONS: in vivo, po, 0 mg/kg, 120 h, tissue Blood, route oral GAVAGE, dose level Control, time 5 day, vehicle .5 % CMC
The reply should be a number in fL, with the unit left off.

Past entries and their recorded results:
Q) MEAN CORPUSCULAR VOLUME for CC(C)(C#N)c1cc(Cn2cncn2)cc(C(C)(C)C#N)c1 ?
A) 63.13

Q) MEAN CORPUSCULAR VOLUME for NC(=O)CN1CCCC1=O ?
A) 63.67

Q) MEAN CORPUSCULAR VOLUME for CC(C)NCC(O)COc1ccc(CC(N)=O)cc1 (stereo not given) ?
A) 60.47

Q) MEAN CORPUSCULAR VOLUME for Cl.NC[C@H]1CC[C@H](C(=O)Oc2ccc(CCC(=O)O)cc2)CC1 [CETRAXATE HYDROCHLORIDE] ?
A) 63.47

Q) MEAN CORPUSCULAR VOLUME for Nc1ccc(C(=O)O)c(O)c1 ?
A) 60.65

Q) MEAN CORPUSCULAR VOLUME for CC(=O)Nc1ccc2c(c1)Cc1ccccc1-2 ?
A) 61.53

Q) MEAN CORPUSCULAR VOLUME for CCN1CCN(c2cc3c(cc2F)c(=O)c(C(=O)O)cn3C2CC2)CC1 ?
A) 59.12

Q) MEAN CORPUSCULAR VOLUME for Cc1cc2c(s1)Nc1ccccc1N=C2N1CCN(C)CC1 ?
A) 62.4

Q) MEAN CORPUSCULAR VOLUME for NCC(CC(=O)O)c1ccc(Cl)cc1 (stereo not given) ?
A) 61.53

// next entry
Q) MEAN CORPUSCULAR VOLUME for NC(=O)NC(=O)Cc1ccccc1 [PHENACEMIDE] ?
A) 59.97
